Data provenance is paper PMC10043961.

Tested on: Vero E6 cells
Details: Vero E6, 24 h
Measured endpoint: Drug-induced toxicity, LDH release (in words)

Smiles entry	Result
COc1ccccc1Oc1c(NS(=O)(=O)c2ccc(C(C)(C)C)cc2)nc(-c2ncccn2)nc1OCCO	minimal impact
C=C[C@H]1C[N@@]2CC[C@H]1C[C@@H]2[C@@H](O)c1ccnc2ccc(OC)cc12	minimal impact

* * *

Target: UniProt:P0DTD1
Measured endpoint: IC50 (µM)

Compound	Measured endpoint	Quantity unit	Numeric readout
CCCCc1oc2ccc(NS(C)(=O)=O)cc2c1C(=O)c1ccc(OCCCN(CCCC)CCCC)cc1 [Dronedarone]	IC50	µM	18
